The reported measurements were obtained from patent US8198462B2.

Experiment: Solubility of the photoinitiator in frequently used organic solvents
Assay type: physicochemical
Settings: solvent ethyl-3-ethoxy propionate (EEP)
Quick reference for Solubility in EEP among some molecules
endpoint: Solubility in EEP

>>> recorded_measurement("CCn1c2ccc(/C(CC(c3ccc(SC)cc3)N(OC(C)=O)C(C)=O)=N/OC(C)=O)cc2c2cc(/C(CC(c3ccc(SC)cc3)N(OC(C)=O)C(C)=O)=N/OC(C)=O)ccc21 (stereo not drawn)")
"50 or more grams in 100 g of the solvent"
>>> recorded_measurement("CCn1c2ccc(C(=O)c3ccccc3C)cc2c2cc(/C(C)=N/OC(C)=O)ccc21 [Comparative Example 1, reference compound]")
"10 grams in 100 g of the solvent"
>>> recorded_measurement("CC(=O)O/N=C(\\CC(c1ccc(C(C/C(=N\\OC(C)=O)c2ccccc2)N(OC(C)=O)C(C)=O)cc1)N(OC(C)=O)C(C)=O)c1ccccc1 (stereo not drawn)")
"50 or more grams in 100 g of the solvent"
>>> recorded_measurement("CCn1c2ccc(/C(CC(c3cccs3)N(OC(C)=O)C(C)=O)=N/OC(C)=O)cc2c2cc(/C(CC(c3cccs3)N(OC(C)=O)C(C)=O)=N/OC(C)=O)ccc21 (stereo not drawn)")
"30 grams in 100 g of the solvent"
>>> recorded_measurement("CCn1c2ccc(/C(CC(c3ccccc3)N(OC(C)=O)C(C)=O)=N/OC(C)=O)cc2c2cc(/C(CC(c3ccccc3)N(OC(C)=O)C(C)=O)=N/OC(C)=O)ccc21 (stereo not drawn)")
"50 or more grams in 100 g of the solvent"
>>> recorded_measurement("CSc1ccc(C(C/C(=N\\OC(C)=O)c2ccc(/C(CC(c3ccc(SC)cc3)N(OC(C)=O)C(C)=O)=N/OC(C)=O)cc2)N(OC(C)=O)C(C)=O)cc1 (stereo not drawn)")
"50 or more grams in 100 g of the solvent"
